# measured_on: Steryl-sulfatase (Homo sapiens, UniProt P08842)
# Sequence (P08842 whole entry): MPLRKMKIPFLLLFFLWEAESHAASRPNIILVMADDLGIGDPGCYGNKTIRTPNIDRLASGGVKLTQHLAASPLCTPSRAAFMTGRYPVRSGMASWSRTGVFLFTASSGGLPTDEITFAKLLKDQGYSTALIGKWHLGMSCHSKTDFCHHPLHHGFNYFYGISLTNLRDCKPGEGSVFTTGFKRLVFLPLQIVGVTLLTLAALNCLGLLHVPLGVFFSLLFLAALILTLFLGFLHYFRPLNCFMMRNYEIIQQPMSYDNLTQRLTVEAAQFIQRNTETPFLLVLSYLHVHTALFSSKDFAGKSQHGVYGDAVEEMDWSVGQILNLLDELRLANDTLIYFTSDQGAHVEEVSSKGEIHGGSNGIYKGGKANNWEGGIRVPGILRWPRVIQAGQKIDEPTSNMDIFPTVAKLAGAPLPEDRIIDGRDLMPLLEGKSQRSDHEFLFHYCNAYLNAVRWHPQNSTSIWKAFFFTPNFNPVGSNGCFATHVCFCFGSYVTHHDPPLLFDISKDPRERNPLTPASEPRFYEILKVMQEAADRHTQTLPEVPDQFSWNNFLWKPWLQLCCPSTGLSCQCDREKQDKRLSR
# test_summary: Inhibition of STS in human JEG-3 cells assessed as inhibition of estrone E1 formation using [3H]estrone sulfate as substrate incubated for 20 hrs in presence of E1S by scintillation spectrometry
# Type: cell-based
# condition_notes: read-out: IC50
quantity_kind: IC50 (nM)

>>> quantitative_readout("NS(=O)(=O)Oc1ccc(-c2sc3cc(OS(N)(=O)=O)ccc3c2C(=O)c2ccc(OCCN3CCCCC3)cc2)cc1")
12.2

P = NS(=O)(=O)Oc1ccc(-c2sc3cc(O)ccc3c2C(=O)c2ccc(OCCN3CCCCC3)cc2)cc1
Q = NS(=O)(=O)Oc1ccc2c(C(=O)c3ccc(OCCN4CCCCC4)cc3)c(-c3ccc(O)cc3)sc2c1
stdin: Just curious, which one has the larger IC50 reading, P or Q ? Output the label that corresponds to your choice.
stdout: P

====

# test_summary: Stability of the compound in wet DMSO-d6 assessed as parent compound remaining at 6.2 umol measured at room temperature after 6 days by 1HNMR spectroscopy
# Type: physicochemical
# condition_notes: at 6.2 µmol, time 6 day, read-out: Stability
quantity_kind: remaining at 144 h, 6.2 umol (%)
Write down the numeric answer in % and omit the unit.

Per the records, this compound ( NS(=O)(=O)Oc1ccc2c(C(=O)c3ccc(OCCN4CCCCC4)cc3)c(-c3ccc(O)cc3)sc2c1 ) has remaining at 144 h, 6.2 umol equal to 70

====

# measured_on: Steryl-sulfatase (Homo sapiens)
# test_summary: Inhibition of STS in human JEG-3 cell lysates assessed as inhibition of estrone E1 formation using [3H]estrone sulfate as substrate incubated for 1 hr in presence of E1S by scintillation spectrometry
# Assay type: subcellular
# condition_notes: read-out: IC50
quantity_kind: IC50 (nM)

1 = NS(=O)(=O)Oc1ccc(-c2sc3cc(O)ccc3c2C(=O)c2ccc(OCCN3CCCCC3)cc2)cc1
2 = NS(=O)(=O)Oc1ccc(-c2sc3cc(OS(N)(=O)=O)ccc3c2C(=O)c2ccc(OCCN3CCCCC3)cc2)cc1
3 = NS(=O)(=O)Oc1ccc2c(C(=O)c3ccc(OCCN4CCCCC4)cc3)c(-c3ccc(O)cc3)sc2c1
stdin: Rank the listed compounds, smallest IC50 first and largest last. // rank by listing labels in the order requested
stdout: 2, 3, 1

====

# test_summary: Stability of the compound in wet DMSO-d6 assessed as parent compound remaining at 7.9 umol measured at room temperature after 30 days by 1HNMR spectroscopy
# Type: physicochemical
# condition_notes: at 7.9 µmol, time 30 day, read-out: Stability
quantity_kind: remaining at 720 h, 7.9 umol (%)
Write down the numeric answer in % and omit the unit.

Per the records, this compound ( NS(=O)(=O)Oc1ccc(-c2sc3cc(OS(N)(=O)=O)ccc3c2C(=O)c2ccc(OCCN3CCCCC3)cc2)cc1 ) has remaining at 720 h, 7.9 umol equal to 0

Taken from ChEMBL document CHEMBL5335823.
